In what follows, each item is paired with its IC50 for Macrophage colony-stimulating factor 1 receptor (Homo sapiens).

input_smiles | IC50
CCc1ccc(COc2ccc(C3CN(Cc4ccccn4)C3)cc2OC)cc1 | > 3 µM
CCc1ccc(COc2ccc(C3CN(Cc4cccnc4)C3)cc2OC)cc1 | > 3 µM
